Form field: Kd (one value per entry).
molecular target: FLT3 ITD (Homo sapiens, UniProt P36888); construct: fused on or other part: DNA tag for qPCR detection (T7 phage fusion or DNA-tagged protein from HEK-293 cells); assay: DiscoverX KINOMEscan competition binding, FLT3 ITD
State just the number; it will be interpreted in nM.

These recorded examples may help you get a feel for the data.
>  <SUBSTANCE SMILES>
FC(F)(F)COc1cn2c(-c3cccc(N[C@@H]4CCNC4)n3)cnc2cn1

>  <TARGET SYSTEM>
FLT3 ITD (Homo sapiens, UniProt P36888)

>  <Kd, nM>
2.3

$$$$
>  <SUBSTANCE SMILES>
Cn1cc(-c2cn3c(-c4cccc(N[C@H]5CNC[C@@H]5F)n4)cnc3cn2)cn1

>  <TARGET SYSTEM>
FLT3 ITD (Homo sapiens, UniProt P36888)

>  <Kd, nM>
0.13

$$$$

I am curious: what Kd value has been reported for CC1(c2cn3c(-c4cccc(N[C@H]5CNC[C@@H]5F)n4)cnc3cn2)CC1 ? 0.087
